Recorded values, source ChEMBL document CHEMBL1201862.

biological target: Coagulation factor XII (Homo sapiens, UniProt P00748); type: functional;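 note: activated factor XIIa alpha cleaving a fluorogenic AMC peptide substrate; inhibitor potency from loss of enzyme activity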
Sequence (P00748 20-372 limits assumed): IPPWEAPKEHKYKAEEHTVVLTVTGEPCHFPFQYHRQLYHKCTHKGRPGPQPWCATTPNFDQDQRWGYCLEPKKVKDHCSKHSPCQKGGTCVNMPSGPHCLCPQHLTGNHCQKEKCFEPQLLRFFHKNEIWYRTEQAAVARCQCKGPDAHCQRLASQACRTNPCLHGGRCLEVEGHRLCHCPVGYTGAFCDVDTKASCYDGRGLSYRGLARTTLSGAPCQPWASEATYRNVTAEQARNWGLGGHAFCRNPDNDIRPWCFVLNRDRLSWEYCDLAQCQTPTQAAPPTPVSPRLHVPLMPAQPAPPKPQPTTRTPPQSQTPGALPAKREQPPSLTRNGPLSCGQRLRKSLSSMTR
Sequence (P00748 373-615 limits assumed): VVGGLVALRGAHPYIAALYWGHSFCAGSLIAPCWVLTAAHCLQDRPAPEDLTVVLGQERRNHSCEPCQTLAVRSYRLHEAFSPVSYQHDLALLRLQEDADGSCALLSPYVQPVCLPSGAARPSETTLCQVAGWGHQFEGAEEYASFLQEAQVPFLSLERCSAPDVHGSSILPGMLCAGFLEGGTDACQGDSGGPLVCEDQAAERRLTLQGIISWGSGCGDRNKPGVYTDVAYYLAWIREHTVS
Calls of active or inactive are those of the source.
Please answer using one outcome listed in T = active, F = inactive

Use these answered entries as a reference point.
> print(dat)
                                   compound  classlabel
1  Cc1ccc(C)c2[nH]c(=O)c(CN(Cc3nnnn3C3CCCCC3)CC3CCCO3)cc12 (centres undefined)           F
2        O=C(NNc1cc(Cl)ccc1Cl)c1c(F)cccc1Cl           F
3  CCCC(C)NC(=O)Cc1ccccc1 (centres undefined)           F

Please look at the following compound next.
I'd appreciate the recorded outcome for O=C1c2ccccc2C(=O)N1OS(=O)(=O)c1ccccc1 from this test.
T

###

Target: Sentrin-specific protease 7 (Homo sapiens, UniProt Q9BQF6);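 note: Luminescence-based dose-response confirmation of ultra-high-throughput screening hits, measuring inhibition of SENP7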
Sequence (Q9BQF6 whole entry): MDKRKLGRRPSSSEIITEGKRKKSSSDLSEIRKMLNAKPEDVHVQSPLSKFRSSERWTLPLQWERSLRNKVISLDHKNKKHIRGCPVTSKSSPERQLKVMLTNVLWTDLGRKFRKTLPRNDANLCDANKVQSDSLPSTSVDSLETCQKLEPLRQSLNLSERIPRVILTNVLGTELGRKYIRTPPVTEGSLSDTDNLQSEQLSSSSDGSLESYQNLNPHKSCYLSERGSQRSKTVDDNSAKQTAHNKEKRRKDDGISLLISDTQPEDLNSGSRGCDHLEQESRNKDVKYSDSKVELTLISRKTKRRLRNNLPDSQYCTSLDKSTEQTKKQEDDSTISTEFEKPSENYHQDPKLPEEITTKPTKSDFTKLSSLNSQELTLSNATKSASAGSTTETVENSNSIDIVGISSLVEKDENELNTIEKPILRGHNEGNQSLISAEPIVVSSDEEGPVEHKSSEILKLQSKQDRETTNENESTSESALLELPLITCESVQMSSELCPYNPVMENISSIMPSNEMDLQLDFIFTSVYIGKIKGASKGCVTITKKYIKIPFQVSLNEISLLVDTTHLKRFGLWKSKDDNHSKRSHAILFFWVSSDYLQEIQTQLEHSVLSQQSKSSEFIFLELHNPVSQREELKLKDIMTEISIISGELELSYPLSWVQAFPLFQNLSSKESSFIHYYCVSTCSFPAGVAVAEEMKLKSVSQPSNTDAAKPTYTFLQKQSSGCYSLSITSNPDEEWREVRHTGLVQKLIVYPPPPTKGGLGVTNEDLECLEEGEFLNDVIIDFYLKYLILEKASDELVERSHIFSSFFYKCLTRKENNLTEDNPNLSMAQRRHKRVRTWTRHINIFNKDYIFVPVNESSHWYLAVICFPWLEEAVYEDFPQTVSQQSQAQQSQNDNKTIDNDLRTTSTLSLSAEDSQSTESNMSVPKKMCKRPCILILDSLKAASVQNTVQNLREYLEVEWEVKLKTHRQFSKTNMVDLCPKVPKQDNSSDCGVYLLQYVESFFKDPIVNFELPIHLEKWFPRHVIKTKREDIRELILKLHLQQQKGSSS
Type: functional
The source made the active and inactive calls.
outcomeMeasure: IC50

Take a look at these entries with their results.
> print(dat)
                                cpdsmiles                              targetentity     reportedvalue
1  CCOC(=O)c1c(C)[nH]c(N=Nc2cccc(C)c2)c1C  Sentrin-specific protease 7 (Homo sapiens, UniProt Q9BQF6)  5.37 µM (active)
2        Cc1ccc(-n2nnc(-c3cccnc3Cl)n2)cc1  Sentrin-specific protease 7 (Homo sapiens, UniProt Q9BQF6)  3.18 µM (active)
3      Nc1ccccc1C#Cc1ccc([N+](=O)[O-])cc1  Sentrin-specific protease 7 (Homo sapiens, UniProt Q9BQF6)  6.02 µM (active)
4          Cc1ccc2c(c1N)C(=O)c1ccccc1C2=O  Sentrin-specific protease 7 (Homo sapiens, UniProt Q9BQF6)  4.33 µM (active)

Proceeding to the next compound to report its IC50.
Request the reported IC50 associated with CCCc1ccc(OC(=O)c2ccc(O)cc2Cl)cc1
8.1 µM (active)
